meta.source: patent EP0705258B1

tested on: tumour necrosis factor-α (TNF-α); test: Mouse Tumour Necrosis Factor Test (Test B), mouse endotoxin shock model, serum TNF-α by ELISA; assay type: in vivo, BALB/c mice; details: Mus musculus; minimum effective oral dose giving significant reduction in serum TNF-α of ≥35%; dosed 2 h before LPS i.p.; ≤ = active at dose given but not tested at lower doses; read-out: MTNF:MED
Structures can show the parent of a compound that is named as a salt.
assayEndpoint: minimal effective dose

Problem: Item `Cc1nc(Cl)c(Cl)n1CCC1CCN(CCCc2ccccc2)CC1` has what recorded minimal effective dose?
Result: 100 mg/kg

Problem: For c1ccc(CCCN2CCN(CCn3ccnc3)CC2)cc1 [Example 95, trihydrochloride] , what is its reported minimal effective dose?
Result: ≤ 3 mg/kg

Problem: Can you share its minimal effective dose? I mean this compound: CC(CCN1CCC(CCn2ccnc2)CC1)c1ccccc1 (centres unmarked)
Result: ≤ 100 mg/kg

Problem: # minimal effective dose lookup, item CC1CN(CCCc2ccccc2)CCC1CCn1ccnc1 (centres unmarked)
Result: ≤ 30 mg/kg

Problem: Any idea what its minimal effective dose is? The compound is `c1ccc(CCN2CCC(CCn3ccnc3)CC2)cc1`
Result: ≤ 30 mg/kg
